fraction ligated values for the variants below.
B1: F1*; the commonest letter at each place (parent)
chain: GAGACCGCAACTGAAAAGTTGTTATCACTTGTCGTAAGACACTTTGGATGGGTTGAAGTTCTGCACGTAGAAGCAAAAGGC

Variants of: B1
Assay: fraction ligated after 30 min (ligated reads / total reads); higher = more ligase activity
Details: with F1*sub RNA substrate (template-directed ligation), 42 °C
Give the figure only, with no unit attached.

Consider the reported fraction ligated for these variants:
>  <mutations>
A39C T44C

>  <fraction ligated>
0.797

$$$$
>  <mutations>
C40G T43G

>  <fraction ligated>
0.819

$$$$
>  <mutations>
A37C T49G

>  <fraction ligated>
0.797

$$$$

What the record says about A37G T49A : fraction ligated is 0.796

For this variant ( G47C A56T ), measured fraction ligated is 0.0769

The recorded fraction ligated for C28T T44G is 0.813

The variant listed as C26G A27G has a reported fraction ligated of 0.694

The variant listed as A36C T43G has a reported fraction ligated of 0.797

Looking up G55T A56G , I found its fraction ligated recorded as 0.806

Value of fraction ligated reported for the variant T25A A36C is 0.684

So for T35G G55T , the logged fraction ligated turned out to be 0.809

For record A24C T25A the listed fraction ligated is 0.793

All values here come from the supplement of paper PMC6755084.
